system: SK-BR-3; test: SRB colorimetric cell growth inhibition assay, SK-BR-3; format: cell-based; details: SK-BR-3; cell killing (cytotoxic effect); read-out: LC50 SK-BR-3
The reader will find reported CC50 values listed item by item below.
Report the value in µM with no unit label.

Study these solved cases before continuing.
molecule	study-system	CC50 [µM]
COc1cc(-c2c3c4cc(OC)c(OC(=O)[C@@H](N)Cc5ccccc5)cc4oc(=O)c3n3ccc4c(OC(=O)[C@@H](N)Cc5ccccc5)c(OC)c(OC)cc4c23)ccc1OC(=O)[C@@H](N)Cc1ccccc1 [Compound 207]	SK-BR-3	4.21
COc1cc(-c2c3c4cc(OC)c(OC(=O)[C@H](C)N)cc4oc(=O)c3n3ccc4cc(O)c(OC)cc4c23)ccc1O.Cl [Compound 240]	SK-BR-3	16.5
COc1cc2ccn3c(c(-c4ccc(OC(=O)[C@@H](N)Cc5ccccc5)c(OC)c4)c4c5cc(OC)c(OC(=O)[C@@H](N)Cc6ccccc6)cc5oc(=O)c43)c2cc1OC [Compound 13]	SK-BR-3	10.2
COc1cc(-c2c3n(c4c(=O)oc5cc(OS(C)(=O)=O)c(OC)cc5c24)CCc2cc(OS(C)(=O)=O)c(OC)cc2-3)ccc1OS(C)(=O)=O [Compound 22]	SK-BR-3	7.16
COc1cc(-c2c3c4cc(OC)c(OC(=O)[C@H](C)N)cc4oc(=O)c3n3ccc4c(OC(=O)[C@H](C)N)c(OC)c(OC)cc4c23)ccc1OC(=O)[C@H](C)N [Compound 191]	SK-BR-3	11.7

Find the recorded CC50 belonging to COc1cc2c(cc1O)oc(=O)c1c2c(-c2ccc(OC(=O)[C@H](C)N)c(OC)c2)c2c3cc(OC)c(O)cc3ccn21.Cl [Compound 238] and report it. 16.5

Find the recorded CC50 belonging to COc1cc(-c2c3c4cc(OC)c(OC(=O)[C@H](C)N)cc4oc(=O)c3n3ccc4c(OC(=O)[C@H](C)N)c(OC)c(OC)cc4c23)ccc1OC(=O)[C@H](C)N [Compound 16] and report it. 0.816

Find the recorded CC50 belonging to COc1cc2ccn3c(c(-c4ccc(OC(=O)[C@@H](N)C(C)C)c(OC)c4)c4c5cc(OC)c(OC(=O)[C@@H](N)C(C)C)cc5oc(=O)c43)c2cc1OC [Compound 14] and report it. 14
